# protocol summary: chemical genetic growth profiling, strain panel (AID 1159580);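 further: tested at 20 µM; growth read once vehicle control cultures reached saturation at 30 °C; 1 = growth at the plate median or of vehicle wells; lower values mean less growth of the strain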
# condition details: S. cerevisiae deletion strains, growth OD, locus YOL012C, strain htz1
Out of some 5,500 compounds screened, about 2,000 (36%) were called active. Roughly 18% stayed inconclusive and do not appear here. This is one part of the list.
endpoint name: normalized growth

{"molecule": "C#CCCCCCCCCCCCC(O)CC(O)COC(C)=O (stereo not given)", "observed value": 1.07}
{"molecule": "C=CCSCC1Nc2cc(Cl)c(S(N)(=O)=O)cc2S(=O)(=O)N1 (stereo not given)", "observed value": 1.06}
{"molecule": "Cc1cccc(C)c1NC1=NCCCS1", "observed value": 1.34}
{"molecule": "CC(=O)OCC(COC(C)=O)OC(C)=O", "observed value": 1.07}
{"molecule": "CCCC(=O)O[C@]1(C(=O)CO)CCC2[C@@H]3CCC4=CC(=O)CC[C@]4(C)C3[C@@H](O)C[C@@]21C (stereo not given in full)", "observed value": 1.05}
{"molecule": "CO/N=C(\\C(=O)N[C@@H]1C(=O)N2C(C(=O)O)=C(CSc3nc(=O)c(O)nn3C)CS[C@H]12)c1csc(N)n1", "observed value": 0.913}
{"molecule": "CCC(C)(C)C(=O)O[C@H]1C[C@@H](C)C=C2C=C[C@H](C)[C@H](CC[C@@H]3C[C@@H](O)CC(=O)O3)[C@H]21", "observed value": 1.29}
{"molecule": "Oc1ccc2c(c1)OCC1c3cc4c(cc3OC21)OCO4 (stereo not given)", "observed value": 1.23}
{"molecule": "C[N+]1(C)C2CC(OC(=O)[C@@H](CO)c3ccccc3)CC1C1OC12 (stereo not given in full)", "observed value": 1.54}
{"molecule": "CC1(C)O[C@H]2[C@H](O)C[C@](O)(C(N)=O)C[C@H]2O1", "observed value": 0.602}
{"molecule": "COc1ccc2c(c1)O[C@H]1c3ccc(OC)cc3OC[C@@H]21", "observed value": 1.39}
{"molecule": "COC(=O)C1=CCCN(C)C1", "observed value": 0.9}
{"molecule": "COc1cc(-c2coc3cc(OCc4ccccc4)c(OC)c(O)c3c2=O)cc(OCc2ccccc2)c1OC", "observed value": 0.883}
{"molecule": "Clc1cccc(Cl)c1NC1=NCCN1", "observed value": 0.754}
{"molecule": "COc1ccc2c(c1OC)C(=O)OC2[C@H]1c2c(cc3c(c2OC)OCO3)CCN1C (stereo not given in full)", "observed value": 0.809}
{"molecule": "CO/N=C(\\C(=O)NC1C(=O)N2C(C(=O)O)=C(COC(N)=O)CSC12)c1ccco1 (stereo not given)", "observed value": 0.173}
{"molecule": "COc1ccc([C@H]2Oc3cc(OC)cc(OC)c3C[C@H]2O)cc1", "observed value": 1.39}
{"molecule": "CO/N=C(\\C(=O)N[C@@H]1C(=O)N2C(C(=O)O)=C(COC(C)=O)CS[C@H]12)c1csc(N)n1", "observed value": 0.969}
{"molecule": "CC[C@H](C)C(=O)O[C@H]1C[C@@H](C)C=C2C=C[C@H](C)[C@H](CC[C@@H]3C[C@@H](O)CC(=O)O3)[C@H]21", "observed value": 0.797}
{"molecule": "CC[C@H](C)C(=O)O[C@H]1CCC=C2C=C[C@H](C)C(CCC3C[C@@H](O)CC(=O)O3)[C@H]21 (stereo not given in full)", "observed value": 0.865}
